assayedTarget: recombinant human ASK1 (hASK1) catalytic domain (Homo sapiens (Human), UniProt Q99683)
Sequence (Q99683 680-938): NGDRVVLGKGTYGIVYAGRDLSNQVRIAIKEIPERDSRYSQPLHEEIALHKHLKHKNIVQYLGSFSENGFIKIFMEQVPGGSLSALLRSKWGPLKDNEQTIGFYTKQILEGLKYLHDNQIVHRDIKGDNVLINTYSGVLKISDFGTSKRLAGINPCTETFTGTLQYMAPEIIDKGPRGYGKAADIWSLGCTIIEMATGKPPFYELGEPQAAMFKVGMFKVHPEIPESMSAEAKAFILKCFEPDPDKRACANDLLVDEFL
measurementProtocol: ASK1 enzymatic assay (ADP-Glo Kinase Assay)
experimentalConditions: hASK1 0.25 nM, MKK6 300 nM, ATP 100 μM; mean ± standard deviation
metric: IC50 (nM)
Reply numerically in nM, unit not repeated.

CC(C)n1cnnc1-c1cccc(N2CCN(C3CC(n4cnc(C(F)(F)F)c4)C3)C2=O)n1 (stereo not shown): 2.8
Cc1ncc(C2CC(N3CCN(c4cccc(-c5nncn5C(C)C)n4)C3=O)C2)cn1 (single isomer, unassigned): 6.21
CC(C)n1cnnc1-c1cccc(N2CCN(C3CC(n4cnc(C5CC5)c4)C3)C2=O)n1 (single isomer, unassigned): 1.47
Cc1ccc(C2CC(N3CCN(c4cccc(-c5nncn5C(C)C)n4)C3=O)C2)cn1 (single isomer, unassigned): 5.26

Enquiry: Give its IC50 value. Item: CC(C)n1cnnc1-c1cccc(N2CCN(C3CC(n4cnc(C5CC5)n4)C3)C2=O)n1 (stereo not shown)
Return: 2.56

Enquiry: Give its IC50 value. Item: CC(C)n1cc(C2CC(N3CCN(c4cccc(-c5nncn5C(C)C)n4)C3=O)C2)cn1 (stereo not shown)
Return: 2.17

Enquiry: Give its IC50 value. Item: CC(C)n1cnnc1-c1cccc(N2CCN(C3CC(n4cnc(C(C)(C)C)c4)C3)C2=O)n1 (stereo not shown)
Return: 1.84

Data provenance is patent US10370352B2.
